Listing of entries alongside the reported percent blockade of GAL3-ITGa3 interaction.
Target: T1, Human GAL3 protein (TrueBinding, QCB200349 / QCB200352; R&D Systems, 8259-GA) (human, UniProt P17931 2-250)
T1 construct: also called human galectin-3
T1 sequence (P17931 2-250 limits assumed): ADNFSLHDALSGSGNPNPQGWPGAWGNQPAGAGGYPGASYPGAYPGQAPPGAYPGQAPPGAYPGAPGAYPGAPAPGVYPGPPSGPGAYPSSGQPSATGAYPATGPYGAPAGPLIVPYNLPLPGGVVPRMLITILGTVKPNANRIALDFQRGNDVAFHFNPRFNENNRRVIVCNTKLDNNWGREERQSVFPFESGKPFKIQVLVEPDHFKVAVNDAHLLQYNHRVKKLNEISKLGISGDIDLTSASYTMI
Experiment: blocking ELISA (GAL3 coated; antibody + biotinylated ITGa3); further: test concentration or dose not given here

Previously resolved entries follow.
F847.14H4 (847.14H4) (antibody, V domains shown, anti-Gal3 antibody) VH: QIQLVQSGPELTKPGETVKISCKASGYTFTDYGMNWVRQAPGETLKWMGWINTYTGEPTYADDFKGRFAFSLESSASTAYLQINNLKNEDVATYFCARYPMDYWGQGTSVTVSS VL: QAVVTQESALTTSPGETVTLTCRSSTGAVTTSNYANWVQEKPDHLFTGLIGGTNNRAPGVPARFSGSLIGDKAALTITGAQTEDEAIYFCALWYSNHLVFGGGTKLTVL | < 35%
F846C.1H5 (antibody, V domains shown, anti-Gal3 antibody; also called 846.1H5) VH: EVQLLESGGGLVKPGGSLKLSCAASGFTFSSYAMSWVRQTPEKRLEWVASISSGGDTYYPDSVKGRFTISRDNARNILYLQMSSLRSEDTAMYYCASYGNSLFDYWGQGTTLTVSS VL: DVVMTQTPLSLPVSLGDQASISCRSSQSLVHNSGNTYLHWYLQRPGQSPNLLIYKVSNRFSGVPDRFSGSGSGTDFTLKISRVAAEDLGVYFCSQSTHVPPTFGGGTKLEIK | > 90%
F846C.1B2 (antibody, V domains shown, also called 846.1B2) VH: QIQLVQSGPELKKPGETVKISCKASGYTFTNYGMNWVKQAPGKGLKWMGWINTYTGEPSYADDFKGRFAFSLETSASTAYLQINNLKNEDMATYFCARWGGYAGDYYAMDFWGQGTSVTVSS VL: NIWLTQSPSSLAVSAGEMVTMTCKSSQSVLYSSNQKNYLAWYQQKPGQSPKLLIYWASTRESGVPDRFTGSGSGTDFSLTISSVQAEDLAVYYCHQYLSSLTFGAGTKLELK | > 90%

Q. Bench note: what percent blockade of GAL3-ITGa3 interaction did 23H9.2E4 (antibody, V domains shown) VH: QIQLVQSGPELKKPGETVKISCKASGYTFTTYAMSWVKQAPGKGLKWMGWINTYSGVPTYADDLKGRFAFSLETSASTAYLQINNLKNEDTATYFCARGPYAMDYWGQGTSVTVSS VL: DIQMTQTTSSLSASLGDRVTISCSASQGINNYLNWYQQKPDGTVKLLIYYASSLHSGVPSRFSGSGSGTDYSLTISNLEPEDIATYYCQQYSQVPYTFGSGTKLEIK show?
A. > 90%

Q. Here is the next binder: 2D10.2B2 (antibody, V domains shown) VH: QVQLQQSGPELVKPGASVKISCKASGYTFTDYYINWVKQRPGQGLEWIGWIYPGSNDTKYNEKFKGKATLTVDTSSSTAYMQLGSLTSEDSAVYFCANYFGCSGWFFDVWGTGTTVTVSS VL: DIVMTQAAFSNPVTLGTSASISCRSSKSLLHSDGITYLYWYLQRPGQSPQLLIYRMSNLASGVPDRFSGSGSGTDFTLRISRVEAEDVGVYYCAQMIEFPLTFGAGTILELK
A. > 90%

Q. Here is the next binder: F846C.1F5 (antibody, V domains shown, also called 846.1F5) VH: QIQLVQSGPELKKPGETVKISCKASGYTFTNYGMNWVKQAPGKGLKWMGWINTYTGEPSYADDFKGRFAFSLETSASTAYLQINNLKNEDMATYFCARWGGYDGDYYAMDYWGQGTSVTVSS VL: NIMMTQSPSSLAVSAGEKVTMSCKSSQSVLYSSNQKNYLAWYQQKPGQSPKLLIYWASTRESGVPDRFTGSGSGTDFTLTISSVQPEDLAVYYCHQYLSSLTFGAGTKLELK
A. > 90%

Q. Here is the next binder: 13G4.2F8 (antibody, V domains shown) VH: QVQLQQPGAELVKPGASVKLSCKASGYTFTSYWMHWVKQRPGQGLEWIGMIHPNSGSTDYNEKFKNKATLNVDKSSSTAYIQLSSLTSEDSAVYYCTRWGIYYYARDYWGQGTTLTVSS VL: DIVMTQSQKFMSTSVGERVSITCKASQNVGTNVAWYQQKAGQSLELLIYGASNRHTGVPDRFTGSGSGTDFTLTITNVQSEDMTNYFCEQYSNFPLTFGAGTKLELK
A. < 35%

Q. Here is the next binder: F846C.2H3 (antibody, V domains shown, also called 846.2H3) VH: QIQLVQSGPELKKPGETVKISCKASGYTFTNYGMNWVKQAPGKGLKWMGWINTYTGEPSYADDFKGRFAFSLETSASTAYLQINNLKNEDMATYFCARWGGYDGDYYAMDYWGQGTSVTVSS VL: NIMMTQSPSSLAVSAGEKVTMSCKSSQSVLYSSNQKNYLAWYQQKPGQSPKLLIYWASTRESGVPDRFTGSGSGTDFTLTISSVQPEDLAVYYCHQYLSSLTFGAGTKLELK
A. > 90%

Q. Here is the next binder: F846C.1H12 (antibody, V domains shown, also called 846.1H12) VH: QIQLVQSGPELKKPGETVKISCKASGYTFTNFGMNWVKQAPGKGLKWMGWINTYTGEPSYADDFKGRFAFSLETSASTAYLQINNLKNEDIATYFCARWGGYAGDYYAMDYWGQGTSVTVSS VL: NIMMTQSPSSLAVSAGQKVTMSCKSSQSVLYSSSQKNYLAWYQQKPGQSPKLLIYWASTRESGVPDRFSGSGSGTDFTLTISSVQPEDLAVYYCHQYLSSLTFGAGTKLELKR
A. > 90%

Q. Here is the next binder: 20D11.2C6 (antibody, V domains shown) VH: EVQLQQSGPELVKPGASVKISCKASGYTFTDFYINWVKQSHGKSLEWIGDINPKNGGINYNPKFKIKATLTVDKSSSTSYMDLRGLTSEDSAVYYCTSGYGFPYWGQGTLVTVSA VL: DIQMNQSPSSLSASLGDTITITCRASQNIYIWLSWYQQKPGNIPKLLIYKASNLHTGVPSRFSGSGSGTDFTLTISTLQPEDIATYFCLQGQSYPLTFGAGTKLEMK
A. > 90%
